Tested on: Zika virus NS2B-NS3 protease (unlinked complex)
assay.comment: Confirmatory screen GU AMC qHTS for Zika virus inhibitors (AID 1347153); further: nearly all actives have a fitted effect of over 70% in size
study.conditions: Recombinant NS2B-NS3 protease, AMC substrate fluorescence; series mostly up to 57.1 µM
Records with an inconclusive call do not appear. Active and inactive are the calls of the source. The call rests on the fitted dose curve; in most records, active means well fitted inhibition curve with a large enough effect; inconclusive means small, poorly fitted or top-dose-only effect; inactive means flat fitted curve, though single readings scatter.
Permitted responses: active, inactive

{"record.smiles": "COc1cc2c(CCNC(C)=O)c[nH]c2cc1O", "class.assignment": "inactive"}
{"record.smiles": "Cc1cccc(C(=O)NCN2CCN(c3ccccc3C#N)CC2)c1", "class.assignment": "inactive"}
{"record.smiles": "COc1ccccc1N1CCN(CCCNc2c(C)c(=O)n(C)c(=O)n2C)CC1", "class.assignment": "inactive"}
{"record.smiles": "CNC(=O)c1cc2c(cn1)[nH]c1ccccc12", "class.assignment": "inactive"}
{"record.smiles": "Nc1nc2ccc(Cl)cc2c2nc(-c3ccco3)nn12", "class.assignment": "inactive"}
{"record.smiles": "C=CCN1CCc2c(cc(O)c(O)c2Br)[C@@H](c2ccccc2)C1", "class.assignment": "inactive"}
{"record.smiles": "C/C(=C\\c1ccc(C(=O)O)cc1)c1ccc2c(c1)C(C)(C)CCC2(C)C", "class.assignment": "active"}

Turning now to a further compound:
Any idea what this test logged for `Nc1ccc(-c2ccc3ccccc3n2)cc1` ? inactive

###

assay.comment: qHTS for differential inhibitors of proliferation of Plasmodium falciparum line D10 (AID 1877);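 further: parasites grown with compound for 72 h before DNA staining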
study.conditions: series mostly up to 28.7 µM
Inconclusive results are not listed. Calls of active or inactive are those of the source. Calls come from the whole dose curve; as a rule, active = well fitted curve in the direction sought with a large enough effect; inconclusive = small, poorly fitted or top-dose-only effect, or another doubt; inactive = no such curve, though single readings can be large or run the other way.
Permitted responses: T = active, F = inactive

Here are 6 molecules together with their reported answers.
{"molecule": "NC(=O)CNCCC(c1ccccc1)c1ccccc1", "class.assignment": "F"}
{"molecule": "COc1ccc2c(c1)c(CC(=O)O)c(C)n2C(=O)c1ccccc1", "class.assignment": "F"}
{"molecule": "Nc1ncnc2c1ncn2C1CCCC1", "class.assignment": "F"}
{"molecule": "O=C(O)c1cc2cc(F)ccc2[nH]1", "class.assignment": "F"}
{"molecule": "C=CCN1CCc2c(cc(O)c(O)c2Br)[C@@H](c2ccccc2)C1", "class.assignment": "T"}
{"molecule": "CN(C)CCC(c1ccc(Br)cc1)c1ccccn1 (configuration not stated)", "class.assignment": "F"}

Any idea what this test logged for `CNC(=O)c1cc2c(cn1)[nH]c1ccccc12` ? F

Any idea what this test logged for `CCCCCCC/C=C\CCCCCCCCC(=O)O` ? F

Any idea what this test logged for `C=CC[C@H](N)C(=O)O` ? F

Any idea what this test logged for CC(=O)[C@H]1CCC2C3CC=C4C[C@@H](OS(=O)(=O)O)CC[C@]4(C)C3CC[C@@]21C (some centres not stated) ? F

Any idea what this test logged for `CCN(c1nc(N)c(C(=O)N=C(N)N)nc1Cl)C(C)C` ? T

Any idea what this test logged for CC#CCOC(=O)c1c(C)nc2sc3c(c2c1N)CCC(O)C3 (configuration not stated) ? F

###

target.or.test.system: ATPase family AAA domain-containing protein 5 (Homo sapiens)
assay.comment: Validation screen for small molecules that inhibit ELG1-dependent DNA repair in human embryonic kidney (HEK293T) cells expressing luciferase-tagged ELG1 (AID 493107); further: nearly all actives have a fitted effect of over 70% in size
study.conditions: HEK293T ELG1-luciferase level, luminescence, 5-fluorouridine co-treatment, 16 h; series mostly up to 46.1 µM
Records with an inconclusive call do not appear. Activity calls are given as the source filed them. Calls come from the whole dose curve; as a rule, active = well fitted inhibition curve with a large enough effect; inconclusive = small, poorly fitted or top-dose-only effect, or effect the other way; inactive = flat fitted curve, though single readings scatter.
Permitted responses: active, inactive

Here are 10 compounds together with their reported answers.
{"compound": "O=c1cc(O)cc(/C=C/c2ccc(O)c(O)c2)o1", "class.assignment": "inactive"}
{"compound": "C/C(=C\\c1ccc(C(=O)O)cc1)c1ccc2c(c1)C(C)(C)CCC2(C)C", "class.assignment": "inactive"}
{"compound": "Cc1cc(Cn2cnc3c2C[C@@H](C(=O)O)N(C(=O)C(c2ccccc2)c2ccccc2)C3)ccc1N", "class.assignment": "inactive"}
{"compound": "CNCCNS(=O)(=O)c1cccc2cnccc12", "class.assignment": "active"}
{"compound": "Cn1cc(C(F)(F)F)nc1-c1ccc(OCC(O)CNCCOc2ccc(O)c(C(N)=O)c2)cc1 (configuration not stated)", "class.assignment": "inactive"}
{"compound": "CSC(=N)N", "class.assignment": "inactive"}
{"compound": "Cc1nc2n(c(=O)c1CCN1CCC(c3noc4cc(F)ccc34)CC1)CCCC2O (configuration not stated)", "class.assignment": "inactive"}
{"compound": "CC(C)NC[C@H](O)COc1ccc(CC(N)=O)cc1", "class.assignment": "inactive"}
{"compound": "O=C(O)c1ccccc1Nc1cccc(OCc2ccc3ccccc3n2)c1", "class.assignment": "inactive"}
{"compound": "CN[C@H](CC(=O)O)C(=O)O", "class.assignment": "inactive"}

Any idea what this test logged for `Nc1ccc(N2C(=O)c3ccccc3C2=O)c(Cl)c1` ? inactive

Any idea what this test logged for `CN(CC[C@@H](Oc1ccc(C(F)(F)F)cc1)c1ccccc1)CC(=O)O` ? inactive
